Documented LC95 across a set of compounds
- Tested on: Culex pipiens pallens
- test-protocol: Insecticidal activity against Culex pipiens pallens (mosquito) fourth-instar larvae assessed as insect mortality measured 24 hr post compound exposure by dipping method
- Format: functional
A bare number is not enough; add the unit after it.

Look over these answered cases.
CC1(C)[C@H](C(=O)O[C@H](C#N)c2cccc(Oc3ccccc3)c2)[C@@H]1C=C(Br)Br [DELTAMETHRIN] ... 0.0033 µg/mL
CC1(C)C(C=C(Cl)Cl)C1C(=O)OC(C#N)c1cccc(Oc2ccccc2)c1 (stereo not drawn) [ALPHA-CYPERMETHRIN] ... 0.0286 µg/mL
CC1(C)[C@H](/C=C/Cl)[C@H]1CC(=O)OCc1c(F)c(F)cc(F)c1F (relative stereo) ... 0.358 µg/mL

# LC95 of C=CCC1=C(C)C(COC(=O)C[C@H]2[C@@H](/C=C/Br)C2(C)C)CC1=O (relative stereo) = 0.7054 µg/mL
